Measurement description: Toxicity liver stage against HepG2, at 10uM
Format: cell-based
Design: test concentration 10 uM, cell line HepG2-A16-CD81EGFP
Applied conditions: human, HepG2-A16-CD81EGFP cells; read-out: INHIBITION
# maps each entry to its cytotoxicity at 10 µM
Endpoint: cytotoxicity at 10 µM (%)

INSERT INTO measurements (compound, endpoint, obs_value) VALUES
  ('CO[C@@H]1CN(c2ccccc2)S(=O)(=O)[C@@]12CCNC2', 'cytotoxicity at 10 µM', -2.64),
  ('Cc1ccc(CN2CCN(Cc3ccc(N(C)C)nc3)CC2=O)cc1C', 'cytotoxicity at 10 µM', -2.43),
  ('CC(C)(C(N)=O)S(=O)(=O)c1ccc(Br)cc1', 'cytotoxicity at 10 µM', 4.4),
  ('O=C(CN1CCOC1=O)N1CCC2(CCc3ccccc32)CC1', 'cytotoxicity at 10 µM', -15.8),
  ('Cc1ncncc1C(=O)NCCn1nc2ccccn2c1=O', 'cytotoxicity at 10 µM', -6.89),
  ('Cn1ccc2c(C(=O)N3CCC4(CCOC4)C3)cccc21 (stereo unspecified)', 'cytotoxicity at 10 µM', -152);

###

Each entry below carries its reported cytotoxicity at 10 µM.
Measurement description: Toxicity liver stage against HepG2, at 10uM
Assay type: cell-based
Set-up: test concentration 10 uM, cell line HepG2-A16-CD81EGFP
Applied conditions: human, HepG2-A16-CD81EGFP cells; read-out: INHIBITION
Endpoint: cytotoxicity at 10 µM (%)

INSERT INTO assay_data (compound, endpoint, obs_value) VALUES
  ('Cc1cc(NC(=O)NCCOc2ccc(Cl)cn2)no1', 'cytotoxicity at 10 µM', 9.08),
  ('COc1ccccc1C(=O)N1CCCC1Cn1cc(C)cn1 (stereo not given)', 'cytotoxicity at 10 µM', -6.49),
  ('Cc1ccc(F)c(OC2(C(=O)O)CCN(C(=O)c3ccccc3)CC2)c1', 'cytotoxicity at 10 µM', 4.2),
  ('c1cncc(OCCNC2Cc3ccccc3C2)c1', 'cytotoxicity at 10 µM', 4.32),
  ('O=C(c1ccc(Oc2cccnc2)cc1)N1CCN(CCO)CC1', 'cytotoxicity at 10 µM', -41.5),
  ('c1cnn(CCNCc2csc(-c3ccc4c(c3)OCO4)n2)c1', 'cytotoxicity at 10 µM', 4.12),
  ('CCn1ccnc1CN1CCN(Cc2ccc(C)o2)[C@@H]2CS(=O)(=O)C[C@@H]21', 'cytotoxicity at 10 µM', -11.2),
  ('CC(C)(C)c1cc(NC(=O)CN2CCc3cncnc3C2)on1', 'cytotoxicity at 10 µM', -8.78),
  ('COc1ccc(Cl)cc1-c1cc(NC(=O)CNC(=O)C2CC2)[nH]n1', 'cytotoxicity at 10 µM', -3.61),
  ('CCS(=O)(=O)NC1CCCN(Cc2ccn(C)c(=O)c2)C1 (stereo not given)', 'cytotoxicity at 10 µM', -1.82),
  ('O=C(NCCNc1ncccn1)C1CCN(C(=O)C2CC2)CC1', 'cytotoxicity at 10 µM', -3.02),
  ('COc1ccc(C[C@H]2CN(C(=O)c3cc(C)no3)CC[C@H]2OC)cc1', 'cytotoxicity at 10 µM', 6),
  ('CC1(C)CN(C(=O)c2ccccc2-n2cncn2)CC1(C)O (stereo not given)', 'cytotoxicity at 10 µM', -19.3),
  ('CN(Cc1cccc(-n2cccn2)c1)Cc1cccs1', 'cytotoxicity at 10 µM', -7.54),
  ('COc1c(Cl)cc(C(=O)NCCNc2ncccn2)cc1Cl', 'cytotoxicity at 10 µM', -9.32),
  ('O=C(C1CCCC1)N1C[C@@H]2CCNC[C@@H]21', 'cytotoxicity at 10 µM', -0.155),
  ('CCCC(C)C(=O)N1CCC(c2cc(N3CCOCC3)nc(C)n2)CC1 (stereo not given)', 'cytotoxicity at 10 µM', -3.35),
  ('O=C(NCCCN1CCOCC1)c1cc(-c2ccco2)[nH]n1', 'cytotoxicity at 10 µM', -15.4),
  ('CC(=O)N1CCCC(C(=O)c2cnn(-c3ccc(F)cc3)c2N)C1 (stereo not given)', 'cytotoxicity at 10 µM', 5.82),
  ('CCc1cnc(N2CCCC(CCC(N)=O)C2)nc1 (stereo not given)', 'cytotoxicity at 10 µM', 2.25),
  ('COc1cc(C(=O)N(Cc2ccco2)C2CC2)cc2c1OCCO2', 'cytotoxicity at 10 µM', 2.35),
  ('CN1CCC(N(C)C[C@H]2CC[C@@H](Cc3ccc4occc4c3)O2)CC1', 'cytotoxicity at 10 µM', -9.27),
  ('CC(=O)N1CCC2(CCN(C(=O)c3ccc(Cl)c(C(F)(F)F)c3)C2)C1 (stereo not given)', 'cytotoxicity at 10 µM', -85.8),
  ('O=C(c1cnccn1)N1CCN(Cc2csc(-c3ccccc3)n2)CC1', 'cytotoxicity at 10 µM', -3.32),
  ('CCn1cc(Cn2cc(Cl)c(N)n2)c(C)n1', 'cytotoxicity at 10 µM', -6.56);
